species on record: Rattus norvegicus; test: Open TG-GATES - Regimen: Single; assay type: toxicity, organism-based, Sprague-Dawley; set-up: regimen Single, gender Male, age 6 weeks; settings: in vivo, po, 0 mg/kg, 24 h, tissue Plasma, route gavage, dose level Control
// reported CRE for each item listed

Some compounds with known CRE results, for comparison:
O=P1(N(CCCl)CCCl)NCCCO1 (stereo not given) [CYCLOPHOSPHAMIDE ANHYDROUS] :: 0.2 mg/dL
CS(=O)(=O)Nc1ccc([N+](=O)[O-])cc1Oc1ccccc1 [NIMESULIDE] :: 0.5 mg/dL
O=C1NC(=O)C(c2ccccc2)(c2ccccc2)N1 :: 0.2 mg/dL
Cc1cccc(Nc2cc(Cl)nc(SCC(=O)O)n2)c1C :: 0.2 mg/dL

Task: Please report the measured CRE for `C=CCO`
Output: 0.4 mg/dL

* * *

species: Rattus norvegicus; test: Open TG-GATES - Regimen: Single; format: toxicity, organism-based, Sprague-Dawley; design: regimen Single, gender Male, age 6 weeks; conditions: in vivo, po, 0 mg/kg, 3 h, tissue Plasma, route gavage, dose level Control
// reported BUN for each item listed
Quick note: give the figure in mg/dL, leave out the unit.

Some compounds with known BUN results, for comparison:
COc1ccc(O)c(C(C)(C)C)c1.COc1ccc(O)cc1C(C)(C)C [BUTYLATED HYDROXYANISOLE] :: 10.6
S=C=Nc1cccc2ccccc12 [1-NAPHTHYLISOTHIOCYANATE] :: 11.2
Cc1cccc(Nc2cc(Cl)nc(SCC(=O)O)n2)c1C :: 11
Cn1cnc([N+](=O)[O-])c1Sc1ncnc2nc[nH]c12 :: 11.8
O=C1NC(=O)C(c2ccccc2)(c2ccccc2)N1 :: 9.8
COc1ccc(Cl)cc1C(=O)NCCc1ccc(S(=O)(=O)NC(=O)NC2CCCCC2)cc1 [GLYBURIDE] :: 11.8
CS(=O)(=O)Nc1ccc([N+](=O)[O-])cc1Oc1ccccc1 [NIMESULIDE] :: 12.4

Task: Please report the measured BUN for `C=CCO`
Output: 11.2

* * *

species: Rattus norvegicus; assay: Open TG-GATES - Regimen: Single; type: toxicity, organism-based, Sprague-Dawley; set-up: regimen Single, gender Male, age 6 weeks; details: in vivo, po, 0 mg/kg, 9 h, tissue Blood, route gavage, dose level Control
// reported MCH for each item listed
Quick note: give the figure in pg, leave out the unit.

COc1ccc(O)c(C(C)(C)C)c1.COc1ccc(O)cc1C(C)(C)C [BUTYLATED HYDROXYANISOLE] :: 21.1
C=CCO :: 20.7

In the following, a different molecule is considered.
Task: Please report the measured MCH for `O=C1CN(/N=C/c2ccc(-c3ccc([N+](=O)[O-])cc3)o2)C(O)=N1`
Output: 21.5

* * *

species: Rattus norvegicus; test: Open TG-GATES - Regimen: Daily Repeat; assay type: toxicity, organism-based, Sprague-Dawley; design: regimen Daily Repeat, gender Male, age 6 weeks; conditions: in vivo, po, 0 mg/kg, 72 h, tissue Blood, route gavage, dose level Control, time 3 day
MEASUREMENT KIND: Eos
Respond with a number, then the unit of measure.

Some compounds with known Eos results, for comparison:
O=P1(N(CCCl)CCCl)NCCCO1 (stereo unspecified) [CYCLOPHOSPHAMIDE ANHYDROUS] :: 0.8%
Cn1c(=O)c2c(ncn2C)n(C)c1=O :: 0.6%
CS(=O)(=O)Nc1ccc([N+](=O)[O-])cc1Oc1ccccc1 [NIMESULIDE] :: 1%

In the following, a different compound is considered.
Task: Please report the measured Eos for COc1ccc(Cl)cc1C(=O)NCCc1ccc(S(=O)(=O)NC(=O)NC2CCCCC2)cc1 [GLYBURIDE]
Output: 0.8%

* * *

organism: Rattus norvegicus; assay: Open TG-GATES - Regimen: Single; type: toxicity, organism-based, Sprague-Dawley; parameters: regimen Single, gender Male, age 6 weeks; settings: in vivo, po, 0 mg/kg, 6 h, tissue Blood, route gavage, dose level Control
// reported RBC for each item listed
Quick note: give the figure in x10_4/ul, leave out the unit.

Some compounds with known RBC results, for comparison:
COc1ccc(Cl)cc1C(=O)NCCc1ccc(S(=O)(=O)NC(=O)NC2CCCCC2)cc1 [GLYBURIDE] :: 676.8
O=C1CN(/N=C/c2ccc(-c3ccc([N+](=O)[O-])cc3)o2)C(O)=N1 [DANTROLENE] :: 588
C=CCO [ALLYL ALCOHOL] :: 626.2
Cc1cnc(NC(=O)C2=C(O)c3ccccc3S(=O)(=O)N2C)s1 [MELOXICAM] :: 625.4
O=C1NC(=O)C(c2ccccc2)(c2ccccc2)N1 [PHENYTOIN] :: 641.4

Task: Please report the measured RBC for CS(=O)(=O)Nc1ccc([N+](=O)[O-])cc1Oc1ccccc1 [NIMESULIDE]
Output: 617.4

Task: Please report the measured RBC for COc1ccc(O)c(C(C)(C)C)c1.COc1ccc(O)cc1C(C)(C)C [BUTYLATED HYDROXYANISOLE]
Output: 626.6

Task: Please report the measured RBC for Cc1cccc(Nc2cc(Cl)nc(SCC(=O)O)n2)c1C [PIRINIXIC ACID]
Output: 630.8

Task: Please report the measured RBC for S=C=Nc1cccc2ccccc12 [1-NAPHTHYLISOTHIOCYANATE]
Output: 609.2

Task: Please report the measured RBC for Cn1cnc([N+](=O)[O-])c1Sc1ncnc2nc[nH]c12 [AZATHIOPRINE]
Output: 612.4

* * *

species on record: Rattus norvegicus; assay: Open TG-GATES - Regimen: Single; type: toxicity, organism-based, Sprague-Dawley; set-up: regimen Single, gender Male, age 6 weeks; conditions: in vivo, po, 0 mg/kg, 3 h, tissue Plasma, route gavage, dose level Control
// reported Ca for each item listed
Quick note: give the figure in mg/dL, leave out the unit.

C=CCO :: 10.8
Cc1cccc(Nc2cc(Cl)nc(SCC(=O)O)n2)c1C :: 10.9
S=C=Nc1cccc2ccccc12 [1-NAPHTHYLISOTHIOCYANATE] :: 10.9

In the following, a different compound is considered.
Task: Please report the measured Ca for `Cn1cnc([N+](=O)[O-])c1Sc1ncnc2nc[nH]c12`
Output: 10.3

* * *

species: Rattus norvegicus; assay: Open TG-GATES - Regimen: Daily Repeat; assay type: toxicity, organism-based, Sprague-Dawley; parameters: regimen Daily Repeat, gender Male, age 6 weeks; settings: in vivo, po, 0 mg/kg, 72 h, tissue Plasma, route gavage, dose level Control, time 3 day
// reported CRE for each item listed
Quick note: give the figure in mg/dL, leave out the unit.

Some compounds with known CRE results, for comparison:
O=C1CN(/N=C/c2ccc(-c3ccc([N+](=O)[O-])cc3)o2)C(O)=N1 :: 0.6
O=P1(N(CCCl)CCCl)NCCCO1 (stereo unspecified) [CYCLOPHOSPHAMIDE ANHYDROUS] :: 0.2
O=C1NC(=O)C(c2ccccc2)(c2ccccc2)N1 :: 0.1

Task: Please report the measured CRE for `C=CCO`
Output: 0.4

Task: Please report the measured CRE for `Cc1cccc(Nc2cc(Cl)nc(SCC(=O)O)n2)c1C`
Output: 0.2

Task: Please report the measured CRE for `Cn1cnc([N+](=O)[O-])c1Sc1ncnc2nc[nH]c12`
Output: 0.1

Task: Please report the measured CRE for COc1ccc(Cl)cc1C(=O)NCCc1ccc(S(=O)(=O)NC(=O)NC2CCCCC2)cc1 [GLYBURIDE]
Output: 0.4

Task: Please report the measured CRE for CS(=O)(=O)Nc1ccc([N+](=O)[O-])cc1Oc1ccccc1 [NIMESULIDE]
Output: 0.6

Task: Please report the measured CRE for `Cn1c(=O)c2c(ncn2C)n(C)c1=O`
Output: 0.2

Task: Please report the measured CRE for COc1ccc(O)c(C(C)(C)C)c1.COc1ccc(O)cc1C(C)(C)C [BUTYLATED HYDROXYANISOLE]
Output: 0.2

Task: Please report the measured CRE for `Cc1cnc(NC(=O)C2=C(O)c3ccccc3S(=O)(=O)N2C)s1`
Output: 0.4

* * *

species: Rattus norvegicus; experiment: Open TG-GATES - Regimen: Single; format: toxicity, organism-based, Sprague-Dawley; set-up: regimen Single, gender Male, age 6 weeks; conditions: in vivo, po, 0 mg/kg, 24 h, tissue Plasma, route gavage, dose level Control
MEASUREMENT KIND: IP (mg/dL)
Quick note: give the figure in mg/dL, leave out the unit.

Some compounds with known IP results, for comparison:
Cc1cccc(Nc2cc(Cl)nc(SCC(=O)O)n2)c1C [PIRINIXIC ACID] :: 8.4
CNCCC(Oc1ccc(C(F)(F)F)cc1)c1ccccc1.Cl (stereo not given) [FLUOXETINE HYDROCHLORIDE] :: 8.1
COc1ccc(Cl)cc1C(=O)NCCc1ccc(S(=O)(=O)NC(=O)NC2CCCCC2)cc1 [GLYBURIDE] :: 7.5
Cc1cnc(NC(=O)C2=C(O)c3ccccc3S(=O)(=O)N2C)s1 [MELOXICAM] :: 7.5
C=CCO [ALLYL ALCOHOL] :: 7.1

Task: Please report the measured IP for S=C=Nc1cccc2ccccc12 [1-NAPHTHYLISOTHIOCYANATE]
Output: 7.6

Task: Please report the measured IP for COc1ccc(O)c(C(C)(C)C)c1.COc1ccc(O)cc1C(C)(C)C [BUTYLATED HYDROXYANISOLE]
Output: 7.7
